# target_entity: androgen receptor (AR) (Homo sapiens, UniProt P10275, T878A)
# Construct: LNCaP cells expressing ARR2PB-FireflyLuc and CMV-RenillaLuc; endogenous in cells; host or cells: LNCaP cells carrying ARR2PB-FireflyLuc and CMV-RenillaLuc reporters
# method_notes: AR reporter assay in LNCaP cells expressing ARR2PB-FireflyLuc and CMV-RenillaLuc, antagonist mode (% remaining activity, IC50)
# Assay type: cell-based
# conditions_used: IC50 (μM), 48 h at 37° C., class symbols A-D
outcome_measure: IC50

                     compound_string  outcome_measure     observed
0  c1ccc2nc(-c3n[nH]c4ccccc34)ccc2c1             IC50  0.1 to 1 µM

###

Recorded pIC50 by entry
# target_entity: androgen receptor (AR) (Homo sapiens, UniProt P10275, T878A)
# Construct: LNCaP cells expressing ARR2PB-FireflyLuc and CMV-RenillaLuc; endogenous in cells; host or cells: LNCaP cells carrying ARR2PB-FireflyLuc and CMV-RenillaLuc reporters
# Sequence (P10275 1-920 T878A): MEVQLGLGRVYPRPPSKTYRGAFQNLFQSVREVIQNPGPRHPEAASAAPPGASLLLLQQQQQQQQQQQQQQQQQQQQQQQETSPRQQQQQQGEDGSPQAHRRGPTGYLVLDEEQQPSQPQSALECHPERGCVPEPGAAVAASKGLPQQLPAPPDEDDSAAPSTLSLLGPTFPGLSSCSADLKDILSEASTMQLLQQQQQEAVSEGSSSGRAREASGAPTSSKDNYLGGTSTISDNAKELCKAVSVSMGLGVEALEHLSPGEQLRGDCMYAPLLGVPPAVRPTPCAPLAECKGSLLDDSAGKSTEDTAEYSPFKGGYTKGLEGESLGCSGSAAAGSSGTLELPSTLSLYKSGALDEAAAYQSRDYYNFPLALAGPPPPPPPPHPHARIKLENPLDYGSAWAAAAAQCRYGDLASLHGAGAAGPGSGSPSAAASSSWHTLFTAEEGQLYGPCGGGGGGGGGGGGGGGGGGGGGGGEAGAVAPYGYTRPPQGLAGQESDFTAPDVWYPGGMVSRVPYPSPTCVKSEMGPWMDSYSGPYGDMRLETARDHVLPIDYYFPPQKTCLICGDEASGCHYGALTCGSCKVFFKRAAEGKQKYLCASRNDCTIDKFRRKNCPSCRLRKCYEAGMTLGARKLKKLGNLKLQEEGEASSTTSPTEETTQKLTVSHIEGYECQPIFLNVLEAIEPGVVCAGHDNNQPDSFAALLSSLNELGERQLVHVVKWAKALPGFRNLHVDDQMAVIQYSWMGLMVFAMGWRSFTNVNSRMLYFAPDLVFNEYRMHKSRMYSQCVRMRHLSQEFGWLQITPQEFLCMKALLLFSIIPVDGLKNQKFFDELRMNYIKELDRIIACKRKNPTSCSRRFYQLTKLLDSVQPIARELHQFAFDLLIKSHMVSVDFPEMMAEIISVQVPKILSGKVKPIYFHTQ
# method_notes: AR reporter assay in LNCaP cells expressing ARR2PB-FireflyLuc and CMV-RenillaLuc, antagonist mode (% remaining activity, IC50)
# Format: cell-based
# conditions_used: 48 h at 37° C., class symbols A-D, read-out: IC50
pIC50: −log10 of the molar value.
outcome_measure: pIC50

>>> print(df.to_string())
                                    compound  outcome_measure      observed
 0     CCOC(=O)c1coc(-c2c[nH]c3c(C)cccc23)n1            pIC50        < 5.00
 1  CC(=O)N1CCC(Oc2ncc(-c3c[nH]c4c(C)cccc34)nc2C)C1 (centres unmarked)            pIC50  5.00 to 6.00
 2  COc1ccc(CN2C(=O)c3ccc(-n4ncc5cc(F)c(F)cc54)nc3C2C)cc1 (centres unmarked)            pIC50        < 5.00
 3  O=C1NCc2nc(-c3n[nH]c4cc(F)c(F)cc34)ccc21            pIC50  5.00 to 6.00
 4    CN1CCN(c2ccc(-c3n[nH]c4ccccc34)nc2)CC1            pIC50        < 5.00
 5    N#Cc1cccc2c(-c3ccc4c(n3)CCCN4)c[nH]c12            pIC50        > 7.00
 6         Cc1cccc(-c2c[nH]c3cc(C#N)ccc23)n1            pIC50  5.00 to 6.00
 7  Cc1nc(-c2c[nH]c3c(C#N)cccc23)cnc1OC1CNC(C)(C)C1 (centres unmarked)            pIC50        < 5.00
 8         N#Cc1cccc2c(-c3ccc(F)cn3)c[nH]c12            pIC50        > 7.00
 9     c1ccc2c(-c3ccc(N4CCNCC4)cn3)n[nH]c2c1            pIC50        < 5.00
10    NCc1cc(F)cc2c(-c3ccc4ncccc4n3)c[nH]c12            pIC50  6.00 to 7.00
11   Cc1nc(-c2n[nH]c3cc(F)c(F)cc23)ccc1N(C)C            pIC50  5.00 to 6.00
12  COc1nc(-c2c[nH]c3c(C#N)cccc23)cnc1N[C@@H]1CCN(C(C)=O)C1            pIC50        > 7.00
13     Cc1nc(-c2c[nH]c3c(C#N)cc(F)cc23)ccc1N            pIC50  6.00 to 7.00
14  CC1(C)NCc2ccc(-c3n[nH]c4cc(F)c(F)cc34)nc21            pIC50        < 5.00
15  CC(=O)N(C)c1ccc(-c2n[nH]c3cc(F)c(F)cc23)nc1C            pIC50        < 5.00
16  CC(C)(O)COc1ncc(-c2c[nH]c3c(C#N)cccc23)nc1C1CC1            pIC50        < 5.00
17  CC1(C)NC(=O)c2ncc(-c3c[nH]c4c(C#N)cccc34)cc21            pIC50        < 5.00
18           Fc1ccc(-c2c[nH]c3cc(F)cnc23)nc1            pIC50  6.00 to 7.00
19     Fc1cc2[nH]nc(-c3ccc4c(n3)CNCC4)c2cc1F            pIC50        < 5.00
20              Fc1ccc(-c2c[nH]c3ncccc23)nc1            pIC50  6.00 to 7.00
21  CN1CCOc2ccc(-c3n[nH]c4cc(F)c(F)cc34)nc21            pIC50  5.00 to 6.00
22  c1ccc2nc(-c3n[nH]c4ccc(N5CCOCC5)cc34)ccc2c1            pIC50  5.00 to 6.00
23        Cc1nccc2nc(-c3n[nH]c4ccccc34)ccc12            pIC50        > 7.00
24  Cc1nc(-c2c[nH]c3c(C#N)cccc23)cnc1OC1CCNC1(C)C (centres unmarked)            pIC50        < 5.00
25           Cc1ccc2c(-c3ccc(F)cc3)c[nH]c2n1            pIC50  5.00 to 6.00
26    Cc1nc2ccc(-c3c[nH]c4c(C#N)cccc34)cc2s1            pIC50  6.00 to 7.00
27          Cc1nc(-c2c[nH]c3c(F)cccc23)ccc1N            pIC50  5.00 to 6.00
28  Cc1nc(-c2c[nH]c3c(C#N)cccc23)cnc1SC1CCNC1 (centres unmarked)            pIC50  5.00 to 6.00
29  CC(C)N1CCOc2ccc(-c3n[nH]c4cc(F)c(F)cc34)nc21            pIC50  5.00 to 6.00
30  Fc1cc2[nH]nc(-c3ccc4c(-c5nnco5)cccc4n3)c2cc1F            pIC50        > 7.00
31   Cc1nc(-c2coc3c(Cl)cccc23)cnc1OCC(C)(C)O            pIC50  6.00 to 7.00
32  CCc1nc(-c2c[nH]c3c(C#N)cccc23)cnc1OC1CCNC1 (centres unmarked) [Compound 249]            pIC50        < 5.00
33  COCC(=O)N1CCCc2nc(-c3n[nH]c4cc(F)c(F)cc34)ccc21            pIC50        < 5.00
34  CC1(C)NC(=O)c2ccc(-c3c[nH]c4ncccc34)nc21            pIC50  6.00 to 7.00
35  CN1C(=O)c2ccc(-c3c[nH]c4c(C(F)(F)F)cccc34)nc2C1(C)C            pIC50  6.00 to 7.00
36  CNC(=O)N1CCCc2nc(-c3n[nH]c4cc(F)c(F)cc34)ccc21            pIC50  5.00 to 6.00
37    Cc1nc(-c2csc3cc(F)ccc23)cnc1OCC(C)(C)O            pIC50  6.00 to 7.00

Sourced from patent US12448368B2
